Assayed System: T1, RSV N-RNA complex (full-length N protein in ring-shaped complexes with bacterial RNA) (human respiratory syncytial virus, UniProt P03418 1-391)
T1 construct: human RSV nucleoprotein N, full length; concentrations are of N protomer; also called N-RNA rings; source: in lysate for the co-purification; purified (glutathione-Sepharose, thrombin, Superdex 200) as N-RNA complex; copies: 10-11
T1 sequence (looked up): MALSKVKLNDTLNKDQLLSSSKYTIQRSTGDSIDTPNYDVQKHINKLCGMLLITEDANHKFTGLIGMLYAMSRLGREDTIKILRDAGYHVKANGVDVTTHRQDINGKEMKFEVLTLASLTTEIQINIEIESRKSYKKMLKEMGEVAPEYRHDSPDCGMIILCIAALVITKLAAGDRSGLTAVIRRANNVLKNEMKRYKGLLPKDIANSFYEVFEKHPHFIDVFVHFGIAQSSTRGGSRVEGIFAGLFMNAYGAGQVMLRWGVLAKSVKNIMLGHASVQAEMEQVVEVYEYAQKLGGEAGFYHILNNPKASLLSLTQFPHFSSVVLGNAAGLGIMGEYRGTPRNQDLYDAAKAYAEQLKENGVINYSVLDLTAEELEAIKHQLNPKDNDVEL
Method Notes: fluorescence polarisation; competition: unlabeled P5E varied against 200 nM F5E on 10 µM N-RNA; Tris pH 8 without salt; Hill equation; Ki from the IC50-to-Ki server
Experimental Context: both partners purified
Readout: pIC50
Answers are plain numbers, as −log10 of the molar value.

// field: pIC50; key: ELEDF (unlabeled peptide from which F5E was made; C-terminal 5 residues of RSV phosphoprotein P; source: synthetic peptide (Fmoc/tBu solid phase, RP-HPLC purified)) [P5E (unlabeled RSV P 5-mer, Ser237Glu)] ; value = 3.36
